B1: TMEM40 (parent)
chain: YGETDFHKQDGKAGLFSQEQYERN

# Variants of: B1
# Assay Method Text: protein stability index of a GFP-peptide fusion (GPS, HEK-293T) (PSI 1-6); higher = more stable;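 further: lentivirally expressed fusions sorted by FACS into six bins by GFP to DsRed ratio, PSI derived from sequencing read proportions per bin multiplied by bin number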
# Test Context: c terminus: a fixed tail appended
Parameter: protein stability index
Form field (numeric): enter value without unit.

F6M
4.91

### Prompt Provide only the value of recorded protein stability index for `E22Q`
### Response 3.8

### Prompt # return recorded protein stability index for input `D10E`
### Response 3.72

### Prompt Please report the measured protein stability index for `L15G`
### Response 4.73

### Prompt Give reported protein stability index value for `E3V`
### Response 4.38

### Prompt Please give the documented protein stability index of `G2M`
### Response 3.92

### Prompt Assign protein stability index to the following record: `E3C`
### Response 3.12

Reference source: the supplement of paper PMC10567573
